Provide the reported viability, T/C of each item.
# System: 266295-075-R-J1-PDC spheroid viability;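 further: spheroids exposed to compounds for seven days before readout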
# assayRemarks: Anticancer human tumor 266295-075-R-J1-PDC patient-derived head and neck squamous carcinoma cell line growth inhibition [POLQ]
# testSettings: second compound 0.316 µM; first compound 1 µM; hits give low values; spheroids with HUVEC and MSC
Form entry: value (%) — number only.

Query block: Provide viability, T/C value for the following compound: CC1COCCN1c1cc(-c2ccnn2C)c2ccnc(-c3ccn[nH]3)c2n1 (stereo not given) + COC1C(OC(N)=O)C(O)C(Oc2ccc3c(O)c(NC(=O)c4ccc(O)c(CC=C(C)C)c4)c(=O)oc3c2C)OC1(C)C
Result block: 61.3

Query block: Provide viability, T/C value for the following compound: Nc1ccn(C2OC(CO)C(O)C2(F)F)c(=O)n1 (stereo not given) + Cc1cccc(N(C)C(=O)C2C(O)CCN2c2nc(C)cc(C(F)(F)F)c2C#N)c1
Result block: 94.9

Query block: Provide viability, T/C value for the following compound: O=c1[nH]cc(F)c(=O)[nH]1 + COC1C(OC(N)=O)C(O)C(Oc2ccc3c(O)c(NC(=O)c4ccc(O)c(CC=C(C)C)c4)c(=O)oc3c2C)OC1(C)C
Result block: 97.3

Query block: Provide viability, T/C value for the following compound: C=CCn1c(=O)c2cnc(Nc3ccc(N4CCN(C)CC4)cc3)nc2n1-c1cccc(C(C)(C)O)n1 + Nc1ccc(C#CCN(C(=O)Cc2ncc(C(F)(F)F)cc2C(F)(F)F)c2ccc(F)cc2)nn1
Result block: 65.3

Query block: Provide viability, T/C value for the following compound: COc1cccc(OCCCN)c1-c1cc(Nc2cnc(C#N)cn2)n[nH]1 + COC1C(OC(N)=O)C(O)C(Oc2ccc3c(O)c(NC(=O)c4ccc(O)c(CC=C(C)C)c4)c(=O)oc3c2C)OC1(C)C
Result block: 70
